test system: HCC 2998; assay: NCI tumour cell line growth inhibition, 48 h
Active and inactive are the calls of the source. Cut-off read from the data, not from the text of the source: active = GI50 up to about 1.1 µM and inactive = higher.
Can you answer with just one of these options? active, inactive

Per the assay record, what outcome was assigned to COC(=O)c1ccccc1C1CN=NC12Cc1cc(C)cc(C)c1C2=O (stereo not drawn) ?
inactive

Per the assay record, what outcome was assigned to CC(C)c1ccc(O)c(Cc2cc(C(C)C)cc(Cc3cc(C(C)C)ccc3O)c2O)c1 ?
inactive

Per the assay record, what outcome was assigned to Cc1cccc(/C=N/NC(=S)N2CCCCCC2)n1 ?
active

Per the assay record, what outcome was assigned to CCOc1ccc(NC(=O)/C(=C/c2ccccc2)C(C)=O)cc1 ?
inactive

Per the assay record, what outcome was assigned to CN1C=Cc2nccc3cc4c(c1c23)OCO4 ?
inactive

Per the assay record, what outcome was assigned to CCCCCCCC(=O)OCC1OC(OC)C(NC(=O)N(CCCl)N=O)C(O)C1O (stereo not drawn) ?
inactive

Per the assay record, what outcome was assigned to COc1ccccc1CNC1=Nc2ccncc2S(=O)(=O)N1c1ccccc1 ?
inactive

Per the assay record, what outcome was assigned to CC(=O)NNc1nc(C)c(C(/C=C/c2ccccc2O)=N/N=C(N)N)s1 ?
inactive

Per the assay record, what outcome was assigned to COc1cc2cc(C(=O)N3CC(COS(C)(=O)=O)c4c3cc(N)c3ccccc43)[nH]c2c(OC)c1OC (stereo not drawn) ?
active

Per the assay record, what outcome was assigned to CCn1c(C)nc([N+](=O)[O-])c1Sc1ncc[nH]1 ?
inactive

Per the assay record, what outcome was assigned to C[N+](C)(C)CC(=O)NC(=O)N/N=C\C(CC#N)CN(Cc1ccccc1)Cc1ccccc1 (stereo not drawn) ?
inactive

Per the assay record, what outcome was assigned to Cc1c2cc[n+](C)cc2c(C)c2c1[nH]c1ccc(OCC(F)(F)F)cc12 ?
inactive

Per the assay record, what outcome was assigned to Cc1ccc(C(=O)O/N=C2/CCCC/C2=C\c2ccccc2)cc1 ?
inactive

Per the assay record, what outcome was assigned to COC(=O)C1C=CCON2CCc3c(n(S(=O)(=O)c4ccccc4)c4ccccc34)C12 (stereo not drawn) ?
inactive

Per the assay record, what outcome was assigned to CCOC(=O)NC/C=C/COC1CCCCO1 (stereo not drawn) ?
inactive

###

system: NCI-H23; test: NCI tumour cell line growth inhibition, 48 h
Calls of active or inactive are those of the source. Cut-off read from the data, not from the text of the source: active = GI50 up to about 1.1 µM and inactive = higher.
Can you answer with just one of these options? True for active, False for inactive

These solved cases illustrate the format of a correct answer.
Per the assay record, what outcome was assigned to O=Cc1c2c(cc3c1CC1(C3)Cc3cc4c(c(C=O)c3C1)CCC4)CCC2 ?
False

Per the assay record, what outcome was assigned to CN(C)C=C1C(=O)N(C)C(=O)N(C)C1=O ?
False

***
Per the assay record, what outcome was assigned to COc1cc(C2C(Cl)C(=O)N2c2ccc(Br)cc2)cc(I)c1O (configuration not stated) ?
False

Per the assay record, what outcome was assigned to Cn1cnc([N+](=O)[O-])c1[Se]c1nc(N)nc2c1ncn2C1OC(CO)C(O)C1O (configuration not stated) ?
False

Per the assay record, what outcome was assigned to CCN(CC)c1ccc(/N=N/c2ccc(-c3nc4ccc[n+](C)c4o3)cc2)cc1 ?
False

Per the assay record, what outcome was assigned to CC(NC(=O)C1(N)CCCC1)C(=O)O (configuration not stated) ?
False

Per the assay record, what outcome was assigned to COc1ccc(-c2coc3cc(O)ccc3c2=O)cc1 [FORMONONETIN] ?
False

Per the assay record, what outcome was assigned to O=C1/C(=C/c2cccc(F)c2)CCCc2ccccc21 ?
False

###

test system: UO-31; assay: NCI tumour cell line growth inhibition, 48 h
The source made the active and inactive calls. Rule as the data show it: active = GI50 up to about 1.1 µM and inactive = higher.
Can you answer with just one of these options? active, inactive

These solved cases illustrate the format of a correct answer.
Per the assay record, what outcome was assigned to N=C(N)N/N=C/c1c(-c2cc([N+](=O)[O-])c(Cl)cc2Cl)nc2n1CCS2 ?
inactive

Per the assay record, what outcome was assigned to CCCC(=O)Oc1ccc(/C=N/NC(N)=S)nc1 ?
inactive

Per the assay record, what outcome was assigned to COc1ccc(C/C(=N/O)C(=O)NCCc2cc(Br)c(OCCCN(C)C)c(Br)c2)cc1Br [APLYSAMINE 2] ?
inactive

Per the assay record, what outcome was assigned to COc1cccc2c1C1=CC(=O)CCC1C(C)(C)O2 (centres undefined) ?
inactive

Per the assay record, what outcome was assigned to Cc1ccc(S(=O)(=O)c2ccc(C)cc2[N+](=O)[O-])cc1 ?
inactive

Per the assay record, what outcome was assigned to Nc1ccccc1C(=O)N/N=C1\C(=O)Nc2ccccc21 ?
inactive

Per the assay record, what outcome was assigned to COc1cc(C2SCC(=O)N2NC(=O)c2ccc(NC(C)=O)cc2OC)ccc1O (centres undefined) ?
inactive

Per the assay record, what outcome was assigned to Cn1ncc2c(Cl)ncnc21 ?
inactive

Per the assay record, what outcome was assigned to CC(C)C1=CC23CCC4C(C)(C(=O)O)CCCC4(C)C2CC1C(C(=O)O)C3C(=O)O (centres undefined) ?
inactive

Per the assay record, what outcome was assigned to COc1ccc(C(=C(C#N)C#N)c2ccc(OC)cc2)cc1 ?
inactive

Okay, next one:
Per the assay record, what outcome was assigned to Cc1cc(C)c(C(=O)C(C)C(c2ccccc2)c2ccc(Cl)cc2)c(C)c1 (centres undefined) ?
inactive

###

system: TK-10; assay: NCI tumour cell line growth inhibition, 48 h
Active and inactive are the calls of the source. No stated cut-off is given here; in the data, active = GI50 up to about 1.1 µM and inactive = higher.
Recorded GI50, one value per entry.

For Cc1c(CCN2CCOCC2)c(N2CCOCC2)n2c(nc3ccccc32)c1C#N the molecule record lists GI50 as > 10 µM (inactive)

For COc1cccc2c1C1=CC(=O)CCC1C(C)(C)O2 (stereo not drawn) the molecule record lists GI50 as > 100 µM (inactive)

Note: attention shifts to another entry.
For O=C(Cc1ccc(F)cc1)NC1=C(Cl)C(=O)c2ccccc2C1=O the molecule record lists GI50 as 6.9 µM (inactive)

###

test system: Hs-578T; assay: NCI tumour cell line growth inhibition, 48 h
Calls of active or inactive are those of the source. No stated cut-off is given here; in the data, active = GI50 up to about 1.1 µM and inactive = higher.
Recorded GI50, one value per entry.

Would you please look over these solved cases?
For COC(=O)C1(C#N)C(C)(C)N=C(c2ccccc2)C12CCCCC2 (stereo not given) the compound record lists GI50 as > 100 µM (inactive)

For Cc1[nH]c2ncn(Nc3ccccc3)c(=N)c2c1Cc1ccccc1 the compound record lists GI50 as 8.28 µM (inactive)

For Cc1ccc([C@H]2CC(=O)C[C@H](c3ccc(C)cc3)C23C(=O)c2ccccc2C3=O)cc1 the compound record lists GI50 as 19.9 µM (inactive)

For COc1ccc(SCc2cc(OC)c(OC)c(OC)c2)cc1OC the compound record lists GI50 as 54 µM (inactive)

Note: attention shifts to another entry.
For COC1=CC(=O)C[C@@H](C)[C@]12Oc1c(Cl)c(OC)cc(OC)c1C2=O the compound record lists GI50 as 11.9 µM (inactive)

###

system: BT-549; test: NCI tumour cell line growth inhibition, 48 h
Activity calls are given as the source filed them. Cut-off read from the data, not from the text of the source: active = GI50 up to about 1.1 µM and inactive = higher.
Can you answer with just one of these options? 1 (active), 0 (inactive)

Per the assay record, what outcome was assigned to COC(=O)/C(=N/NC(N)=O)C(C(=O)C(=O)Nc1ccc(C)cc1)c1nc2ccc(C(=O)c3ccccc3)cc2nc1O (stereo not given) ?
0

Per the assay record, what outcome was assigned to COc1ccccc1N1C(=O)/C(=C\c2cc(OC)c(OC)c(OC)c2)SC1c1ccccc1 (stereo not given) ?
0

Per the assay record, what outcome was assigned to CCCCCCCCC/C=C1\CCC(CN2CCOCC2)C1=O (stereo not given) ?
0

Per the assay record, what outcome was assigned to COc1cc(C2C(Cl)C(=O)N2c2ccc(Br)cc2)cc(I)c1O (stereo not given) ?
0

Per the assay record, what outcome was assigned to CCOC(=O)C(C(=O)OCC)=C1SC(=N\c2ccccc2)/C(=N/c2ccccc2)N1c1ccccc1 ?
0

Per the assay record, what outcome was assigned to CC(C)(Cl)C(Br)CC/C(=C/CBr)CBr.CC(C)(Cl)C(Br)CC/C(=C\CBr)CBr (stereo not given) ?
0

***
Per the assay record, what outcome was assigned to CCOC(=O)C#Cc1ccc(C#CC(=O)OCC)cc1 ?
0

Per the assay record, what outcome was assigned to c1ccc(C/C(=N\Nc2nc3ccccc3[nH]2)c2ccccn2)cc1 ?
1

Per the assay record, what outcome was assigned to CC(=O)Nc1ccc2c(C(=O)O)c(C)c(O)nc2n1 ?
0

Per the assay record, what outcome was assigned to CCO[C@@]1(COCc2ccccc2)OC(=O)C[C@@H]1N1C(=O)OC[C@@H]1c1ccccc1 ?
0

###

Recorded GI50, one value per entry.
system: OVCAR-3; test: NCI tumour cell line growth inhibition, 48 h
Activity calls are given as the source filed them. No stated cut-off is given here; in the data, active = GI50 up to about 1.1 µM and inactive = higher. Square brackets hold non-standard residues; d marks the D form. Peptide text beside a SMILES is read from it. * marks the point of attachment. Boc = CC(C)(C)OC(=O)*; Lac = C[CH](O)C(=O)O; OBn = c1ccc(CO*)cc1

Would you please look over these solved cases?
For CCCCCCCC(=O)OCC1OC(OC)C(NC(=O)N(CCCl)N=O)C(O)C1O (centres undefined) the compound record lists GI50 as 19.7 µM (inactive)

For Cc1cc([N+](=O)[O-])c(C)c2c1[nH]c1ccc(O)cc12 the compound record lists GI50 as 60.4 µM (inactive)

For Cc1ccc([C@H]2CC(=O)C[C@H](c3ccc(C)cc3)C23C(=O)c2ccccc2C3=O)cc1 the compound record lists GI50 as 41.9 µM (inactive)

For CC1CC2=C(S(=O)(=O)c3ccccc3)CC(S(=O)(=O)c3ccccc3)(S(=O)(=O)c3ccccc3)CC21 (centres undefined) the compound record lists GI50 as > 100 µM (inactive)

For CC(OC(=O)C(Cc1ccccc1)NC(=O)C(Cc1ccccc1)NC(=O)OC(C)(C)C)C(=O)OCc1ccccc1 (stereo not drawn) (Boc-Phe-Phe-[Lac]-OBn; configuration not given here) the compound record lists GI50 as > 100 µM (inactive)

***
For O=c1c2ncn(COCCCl)c2n(-c2ccccc2)c(=S)n1-c1ccccc1 the compound record lists GI50 as > 100 µM (inactive)

For COc1cc(C2SCC(=O)N2NC(=O)c2ccc(NC(C)=O)cc2OC)ccc1O (centres undefined) the compound record lists GI50 as > 100 µM (inactive)

For COc1ccccc1N1C(=O)/C(=C\c2cc(OC)c(OC)c(OC)c2)SC1c1ccccc1 (centres undefined) the compound record lists GI50 as 37.5 µM (inactive)

For CCOC(=O)Nc1ccc(S(=O)(=O)OC)cc1.CCOC(=O)Nc1ccc(S(=O)(=O)OC)cc1.NNC(=O)c1ccncc1 the compound record lists GI50 as > 50 µM (inactive)

For Oc1ccc2c(c1)OCC1(O)Cc3cc(O)c(O)cc3C21 (centres undefined) the compound record lists GI50 as 16.2 µM (inactive)
